recorded_metric: logP

Example entries and their recorded answers appear below.
>>> reported_result("CCCc1nc(NCC)nc(N2CCOCC2)n1")
2.23
>>> reported_result("Cc1nc2c3c(c(C(=O)N4CC(O)C4)cn2c1C)CCC(c1ccccc1)O3 (stereo not given)")
3.1
>>> reported_result("COC(=O)C(C)=CC1C(C(=O)OCc2cccc(OCc3ccccc3)c2)C1(C)C (stereo not given)")
6.06

### Prompt What logP value was documented for this molecule, CCOc1ccc(C(=O)OCCCn2ccc(=O)c(O)c2C)cc1 ?
### Response 1.79

### Prompt Also, CC(C)c1cc(=S)ss1 please.
### Response 2.75

### Prompt Also, Cc1cc2ccc(=O)oc2c2c(C)coc12 please.
### Response 2.88

### Prompt Also, Nc1ccc(S(=O)(=O)Nc2cc(Br)cc3[nH]ccc23)cc1 please.
### Response 2.77

### Prompt Also, CCC(C)SSc1ncc[nH]1 (stereo not given) please.
### Response 2.76

### Prompt Also, N#CCCOC1Cc2c(O)cc(O)cc2OC1c1ccc(O)c(O)c1 (stereo not given) please.
### Response 0.96

----------
logP vs 3: at or above is yes, below is no.

Examples from the recorded data:
>>> class("CC1=C(CC(=O)O)c2cc(F)ccc2C1=Cc1ccc(S(C)(=O)=O)cc1")
"yes"
>>> class("Cc1ccc(O)cc1N")
"no"
>>> class("CC(C)=CC1C(C(=O)OCc2cccc(I)c2)C1(C)C (stereo not given)")
"yes"
>>> class("CC(C)NC(=NC#N)NS(=O)(=O)c1cnccc1NC1CCCC1")
"no"
>>> class("CCCN(CCc1cccs1)C1CCc2c(O)cccc2C1 (stereo not given)")
"yes"
>>> class("CC(C)(C)n1cc(C(=O)O)c(=O)c2cc(F)c(N3CC4CC3CN4)nc21 (stereo not given)")
"no"
>>> class("CCOC(=O)C1=C(C)NC(C)=C(C(=O)OC)C1c1cccc(OC)c1OC (stereo not given)")
"yes"
>>> class("CCOC(=O)c1cccc(CN)c1")
"no"
>>> class("CC(Nc1[nH]cnc2ncnc1-2)c1ccccc1 (stereo not given)")
"no"
>>> class("COC(=O)C(C)NP(=O)(OCC1C=CC(n2cc(C)c(=O)[nH]c2=O)O1)Oc1cccc(F)c1 (stereo not given)")
"no"

### Prompt Quick check, logP >= 3? O=C1C=C(N2CC2)C(=O)C=C1N1CC1
### Response no

### Prompt Also, CNCc1ccc(C)cc1 please.
### Response no

### Prompt Also, CCOC(=O)CCCn1cc([N+](=O)[O-])nc1C please.
### Response no

### Prompt Also, O=[N+]([O-])c1nccn1CC(O)C(O)CF (stereo not given) please.
### Response no

### Prompt Also, O=C(NS(=O)(=O)c1cnccc1NC1CCCCCCC1)N1CCCCC1 please.
### Response yes

### Prompt Also, COc1ccc(F)cc1CNC1CCCNC1c1ccccc1 (stereo not given) please.
### Response yes

### Prompt Also, Nc1nnnn1-c1ccc(Cl)c(Cl)c1 please.
### Response no

### Prompt Also, c1ccc(N2CCN(CCn3nnc4ccccc43)CC2)cc1 please.
### Response no

----------
recorded_metric: logP
Please respond with just the number, no unit label.

Example entries and their recorded answers appear below.
>>> reported_result("O=C(O)C(c1ccc(-c2ccccc2)cc1)C(O)c1ccccc1 (centres undefined)")
3.6
>>> reported_result("Cc1cccc(C)c1CCN")
2.38

### Prompt What logP value was documented for this compound, COC(=O)C(C)=CC1C(C(=O)OCc2cccc(Oc3ccccc3)c2)C1(C)C (centres undefined) ?
### Response 6.48

### Prompt Also, CC(C(=O)O)c1ccc(N2CC3CCCCC3C2=O)cc1 (centres undefined) please.
### Response 3.15

### Prompt Also, CON(C)C(=O)c1cn2c(C)c(C)nc2c2c1CCC(c1ccccc1)O2 (centres undefined) please.
### Response 3.6

### Prompt Also, NC1=NCC(CN2CCC(C(=O)c3ccccc3)CC2)O1 (centres undefined) please.
### Response 1.05

### Prompt Also, Cc1ccnc2c1NC(=O)c1cccnc1N2C1CC1 please.
### Response 1.81

### Prompt Also, CN1CCN(CCn2nnc3ccccc32)CC1 please.
### Response 0.36

### Prompt Also, O=c1cc(CI)occ1O please.
### Response 0.67

### Prompt Also, CCCCCCOc1ccc(CC(=O)O)cc1OC please.
### Response 3.3
